Molecular target: human hNET (Homo sapiens)
Construct: expressed in transfected cells; host or cells: MDCK-Net6 (MDCK cells stably transfected with hNET)
Sequence (P23975 whole entry): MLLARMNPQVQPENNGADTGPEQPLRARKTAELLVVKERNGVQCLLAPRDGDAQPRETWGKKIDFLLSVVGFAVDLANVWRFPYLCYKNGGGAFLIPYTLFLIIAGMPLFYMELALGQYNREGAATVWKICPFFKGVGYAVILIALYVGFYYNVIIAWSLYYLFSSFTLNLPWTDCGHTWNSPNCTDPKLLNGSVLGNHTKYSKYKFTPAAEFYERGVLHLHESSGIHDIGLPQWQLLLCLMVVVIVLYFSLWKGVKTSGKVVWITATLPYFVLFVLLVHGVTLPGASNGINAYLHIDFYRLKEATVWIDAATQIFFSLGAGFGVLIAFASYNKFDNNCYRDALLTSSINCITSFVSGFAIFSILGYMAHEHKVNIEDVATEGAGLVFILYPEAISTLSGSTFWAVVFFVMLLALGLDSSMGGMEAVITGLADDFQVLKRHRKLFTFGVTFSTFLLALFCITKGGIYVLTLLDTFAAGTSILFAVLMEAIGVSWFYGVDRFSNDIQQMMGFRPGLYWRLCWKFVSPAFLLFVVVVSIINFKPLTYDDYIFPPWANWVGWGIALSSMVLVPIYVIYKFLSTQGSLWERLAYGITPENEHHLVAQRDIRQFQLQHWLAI
Experiment: Norepinephrine (NE) uptake assay in MDCK-Net6 cells
Format: cell-based
Conditions: 1 μM test compound; [3H]NE uptake, MDCK-Net6 cells stably transfected with hNET
Structures can show the parent of a compound that is named as a salt.
metric.name: inhibition at 1 µM (%)
Response body: numeric value in %, unit text excluded.

Given the entry OC1(C(CN2CCNCC2)c2cccc(F)c2)CCCCC1 (stereo not shown) [Example 9, dihydrochloride] , report its measured inhibition at 1 µM.
79

What does the data say about its inhibition at 1 µM? Entry: CN1CCN(CC(c2cccc(Cl)c2)C2(O)CCCCCCC2)CC1 (stereo not shown) [Example 39, dihydrochloride]
42

Dear colleague, I am looking for the recorded inhibition at 1 µM of the following molecule: OC1(C(CN2CCNCC2)c2cccc(Cl)c2)CCC1 (stereo not shown) [Example 23, dihydrochloride]
28

# lookup: inhibition at 1 µM of COc1ccc(C(CN2CCN(C)CC2)C2(O)CCCCCCC2)cc1Br (stereo not shown) [Example 41, dihydrochloride]
48
